Could you please report measured melting point for the items listed next?
Answers are plain numbers, in °C.

- CCc1ncnc(N2C3CCC2CC(=CC(=O)O)C3)c1Cl: 162
- Cn1nc(C(F)(F)F)cc1C(=O)N1[C@@H]2CC[C@H]1CC(Oc1cc(C(F)(F)F)ccn1)C2 (stereo partly drawn): 122
- Cc1noc2ncnc(N3[C@@H]4CC[C@H]3CC(Oc3ccc(C(F)(F)F)cn3)C4)c12 (stereo partly drawn): 238
- Cc1nn(C)c2nccc(N3[C@@H]4CC[C@H]3CC(Oc3ncc(Cl)cc3F)C4)c12 (stereo partly drawn): 112
- CCc1ncnc(C(C)c2ncnc(N3C4CCC3CC(=NO)C4)c2Cl)c1Cl (stereo not drawn): 162

Required: melting point, one value per compound below.
1. Cc1nn(C)c2nccc(N3C4CCC3CC(=NO)C4)c12
2. Cc1csc(CC2CC3CCC(C2)N3c2ncnc3sccc23)n1 (stereo not drawn)
3. FC(F)(F)c1cccc(OC2C[C@H]3CC[C@@H](C2)N3c2ccnc3c(Cl)cccc23)n1 (stereo partly drawn)
4. Cc1csc2c(N3[C@@H]4CC[C@H]3CC(Oc3cccc(C(F)(F)F)n3)C4)ncnc12 (stereo partly drawn)

1. 201
2. 132
3. 116
4. 123

###

Tested on: Erysiphe graminis f.sp. tritici
Assay: Erysiphe graminis f.sp. tritici (wheat powdery mildew) leaf disk assay
Format: in vivo
Settings: Blumeria graminis, foliar, 96 h, preventive, four days after inoculation, read-out: control of fungal infection, Erysiphe graminis fsp. tritici
Could you please report measured pest or weed control at 200 ppm for the items listed next?

Required: pest or weed control at 200 ppm, one value per compound below.
1. CCCC1COC2(CC3CCC(C2)N3c2ncnc3sccc23)O1 (centres unmarked)
2. CCc1ncnc(N2C3CCC2CC(=NOCc2ccc(Cl)c(Cl)c2)C3)c1Cl
3. CCc1ncnc(N2C3CCC2CC(=NOCc2cc(Br)cc(Br)c2)C3)c1Cl
4. COc1nc(-c2ccc(C)cc2)nc(ON=C2CC3CCC(C2)N3c2ncnc3sccc23)c1C
5. Cc1nsc(Oc2ccc(OC3C[C@H]4CC[C@@H](C3)N4c3ncnc4scc(C)c34)cc2)n1 (some centres unmarked)
6. FC(F)(F)c1cccc(OC2C[C@H]3CC[C@@H](C2)N3c2ncnc3sccc23)n1 (some centres unmarked)
7. Brc1cccc(CON=C2CC3CCC(C2)N3c2ncnc3sccc23)c1
8. CCc1ncnc(N2[C@@H]3CC[C@H]2CC(Oc2ccccc2C(F)(F)F)C3)c1Cl (some centres unmarked)

≥ 80%
≥ 80%
≥ 80%
≥ 80%
≥ 80%
≥ 80%
≥ 80%
≥ 80%

Required: pest or weed control at 200 ppm, one value per compound below.
1. c1cc(OC2C[C@H]3CC[C@@H](C2)N3c2ncnc3sccc23)ccn1 (some centres unmarked)
2. CC(C)c1ccc(OC2C[C@H]3CC[C@@H](C2)N3c2ncnc3sccc23)cc1 (some centres unmarked)
3. Fc1cc(CON=C2CC3CCC(C2)N3c2ncnc3sccc23)cc(C(F)(F)F)c1F
4. c1ccc2cc(CON=C3CC4CCC(C3)N4c3ncnc4sccc34)ccc2c1

1. ≥ 80%
2. ≥ 80%
3. ≥ 80%
4. ≥ 80%

###

Could you please report measured pest or weed control at 200 ppm for the items listed next?
System: Phytophthora infestans
Assay: whole plant or invertebrate
Type: in vivo
Details: foliar, 96 h, read-out: control of fungal infection, Phytophthora infestans

• Clc1ccccc1CON=C1CC2CCC(C1)N2c1ncnc2sccc12 = ≥ 80%
• Fc1ccc(CON=C2CC3CCC(C2)N3c2ncnc3sccc23)cc1F = ≥ 80%
• CCc1ncnc(N2C3CCC2CC(=NOCc2ccc(S(C)(=O)=O)cc2)C3)c1Cl = ≥ 80%

Required: pest or weed control at 200 ppm, one value per compound below.
1. Brc1cccc(CON=C2CC3CCC(C2)N3c2ncnc3sccc23)c1
2. Cc1ccc(OCC=C2CC3CCC(C2)N3c2ncnc3sccc23)cc1
3. CCc1ncnc(N2C3CCC2CC(=NOCc2ccc(NC(C)=O)cc2)C3)c1Cl
4. COC(=O)Cc1c(Cl)ncnc1ON=C1CC2CCC(C1)N2c1ncnc2sccc12
5. Cc1cc(C)c(CON=C2CC3CCC(C2)N3c2ncnc3sccc23)c(C)c1

1: ≥ 80%; 2: ≥ 80%; 3: ≥ 80%; 4: ≥ 80%; 5: ≥ 80%

###

readout_label: melting point
Lab note: write values as number then unit, every time.

Check out these entries, answers already filled in.
• Clc1ccc(OC2C[C@H]3CC[C@@H](C2)N3c2ncnc3sccc23)cc1 (stereo partly shown) = 184 °C
• Cc1nn(C)c2nccc(N3C4CCC3CC(=NOc3ncc(C(F)(F)F)cc3Cl)C4)c12 [Example 5.261] = 153 °C
• Cc1cc(N2[C@@H]3CC[C@H]2CC(Oc2cccc(C(F)(F)F)n2)C3)n2ncnc2n1 (stereo partly shown) [Example 2.101] = 212 °C

Required: melting point, one value per molecule below.
1. CCc1ncnc(N2C3CCC2CC(=NO)C3)c1Cl
2. Cc1nsc(N2[C@@H]3CC[C@H]2CC(Oc2ccc(C(F)(F)F)cn2)C3)n1 (stereo partly shown) [Example 2.204]
3. Cc1ccc(OC2C[C@H]3CC[C@@H](C2)N3c2ccnc3c2c(C)nn3C)cn1 (stereo partly shown) [Example 2.164]
4. CC(=O)NC1C[C@H]2CC[C@@H](C1)N2c1ncnc2sccc12 (stereo partly shown)
5. N#Cc1sc(N2[C@@H]3CC[C@H]2CC(Oc2cccc(C(F)(F)F)n2)C3)nc1C(F)(F)F (stereo partly shown)
6. Cc1noc2ncnc(N3[C@@H]4CC[C@H]3CC(Oc3cccc(C(F)(F)F)n3)C4)c12 (stereo partly shown) [Example 2.121]

73 °C
169 °C
153 °C
196 °C
147 °C
159 °C

###

System: Phytophthora infestans
Assay: whole plant or invertebrate
Type: in vivo
Conditions: foliar, 96 h, read-out: control of fungal infection, Phytophthora infestans
readout_label: pest or weed control at 200 ppm

* CCc1ncnc(N2C3CCC2CC(=NOCc2ccccc2)C3)c1Cl [Example 5.5] | ≥ 80%
* COc1ccc(CON=C2CC3CCC(C2)N3c2ncnc3sccc23)cc1 [Example 5.165] | ≥ 80%
* Cc1ccc(CON=C2CC3CCC(C2)N3c2ncnc3sccc23)c(C)c1 [Example 5.190] | ≥ 80%
* Fc1cc(F)c(F)c(CON=C2CC3CCC(C2)N3c2ncnc3sccc23)c1 [Example 5.227] | ≥ 80%
* CCc1ncnc(N2C3CCC2CC(=NOCc2c(F)ccc(F)c2F)C3)c1Cl [Example 5.82] | ≥ 80%
* CCc1ncnc(N2C3CCC2CC(=Cc2ccccc2)C3)c1Cl [Example 3.6] | ≥ 80%
* Fc1cccc2c(N3[C@@H]4CC[C@H]3CC(Oc3ccc(C(F)(F)F)cn3)C4)ccnc12 (stereo partly shown) [Example 2.201] | ≥ 80%
* c1ccc(CON=C2CC3CCC(C2)N3c2ncnc3sccc23)cc1 [Example 5.138] | ≥ 80%
* CCc1ccc(CON=C2CC3CCC(C2)N3c2ncnc3sccc23)cc1 [Example 5.151] | ≥ 80%

Kindly consider the entry below.
Item Clc1cccc(CON=C2CC3CCC(C2)N3c2ncnc3sccc23)c1 [Example 5.150] has what recorded pest or weed control at 200 ppm?
≥ 80%

###

Could you please report measured melting point for the items listed next?

Check out these entries, answers already filled in.
- Cc1nn(C)c2nccc(N3[C@@H]4CC[C@H]3CC(Oc3ccc(Cl)cc3)C4)c12 (stereo partly shown): 155 °C
- FC(F)(F)c1cccc(OC2C[C@H]3CC[C@@H](C2)N3c2ccnc3cc(Cl)ccc23)n1 (stereo partly shown): 177 °C
- FC(F)(F)c1ccnc(OC2C[C@H]3CC[C@@H](C2)N3c2ccncn2)c1 (stereo partly shown): 108 °C

Kindly consider the entry below.
Item Cc1noc2ncnc(N3[C@@H]4CC[C@H]3CC(Oc3cc(C(F)(F)F)ccn3)C4)c12 (stereo partly shown) has what recorded melting point?
192 °C

meta.source: patent US20100331348A1
